- EXPERIMENTAL TARGET: mouse ALDH1A3 (Mus musculus)
- Construct: made in house; host or cells: BL21-DE3 E. coli
- Sequence (Q9JHW9 whole entry): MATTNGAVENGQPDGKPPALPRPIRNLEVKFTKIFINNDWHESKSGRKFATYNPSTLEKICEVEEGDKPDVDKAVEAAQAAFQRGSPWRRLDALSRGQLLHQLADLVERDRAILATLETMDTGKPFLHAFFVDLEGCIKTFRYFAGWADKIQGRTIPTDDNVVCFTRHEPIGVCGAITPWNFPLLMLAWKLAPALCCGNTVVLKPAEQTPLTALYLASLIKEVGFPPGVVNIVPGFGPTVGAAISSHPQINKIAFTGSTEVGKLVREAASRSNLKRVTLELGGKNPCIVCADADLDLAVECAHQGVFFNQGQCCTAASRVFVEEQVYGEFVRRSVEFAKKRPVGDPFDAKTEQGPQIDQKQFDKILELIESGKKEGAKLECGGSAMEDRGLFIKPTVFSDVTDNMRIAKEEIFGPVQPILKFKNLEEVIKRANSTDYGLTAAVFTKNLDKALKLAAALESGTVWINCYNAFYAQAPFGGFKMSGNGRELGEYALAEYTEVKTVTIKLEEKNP
- RUN DESCRIPTION: Recombinant enzyme activity assay
- Type: biochemical
- SETTINGS: recombinant activity assay (Table 1); read-out: IC50 molecular, mouse ALDH1A3
TEST READOUT: IC50
Hi, when you answer, please include the unit after the number. Thanks!

Challenge: Entry CCc1ccccc1C(=O)Nc1cc2c(cc1F)NC(=O)CC2 needs its IC50 filled in; supply it.
Response given: 149 nM

====

- EXPERIMENTAL TARGET: CYP2C9 (Homo sapiens)
- Sequence (P11712 whole entry): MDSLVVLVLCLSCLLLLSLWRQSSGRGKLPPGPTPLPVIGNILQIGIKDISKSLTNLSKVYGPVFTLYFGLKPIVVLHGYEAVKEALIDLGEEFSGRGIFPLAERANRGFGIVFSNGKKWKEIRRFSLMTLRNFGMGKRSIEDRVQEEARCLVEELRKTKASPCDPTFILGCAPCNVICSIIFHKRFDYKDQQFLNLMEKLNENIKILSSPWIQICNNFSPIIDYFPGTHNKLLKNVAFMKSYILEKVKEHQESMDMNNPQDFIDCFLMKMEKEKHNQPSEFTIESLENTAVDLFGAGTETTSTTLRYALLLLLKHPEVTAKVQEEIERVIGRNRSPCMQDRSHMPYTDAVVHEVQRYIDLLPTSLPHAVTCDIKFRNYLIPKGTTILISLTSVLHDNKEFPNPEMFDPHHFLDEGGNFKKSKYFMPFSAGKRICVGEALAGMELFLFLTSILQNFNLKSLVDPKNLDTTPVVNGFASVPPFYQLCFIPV
- RUN DESCRIPTION: CYP inhibition
- Type: in vitro ADME
TEST READOUT: inhibition at 10 µM

Challenge: Entry CCc1cnccc1C(=O)Nc1cc2c(cc1F)NC(=O)CC2 [MBE1] needs its inhibition at 10 µM filled in; supply it.
Response given: 13.9%

Challenge: Entry CCc1ccccc1C(=O)Nc1cc2c(cc1F)NC(=O)CC2 [MBE1.5] needs its inhibition at 10 µM filled in; supply it.
Response given: 5.6%

====

- EXPERIMENTAL TARGET: human ALDH1A3 in A375 cells (Homo sapiens, UniProt P47895)
- Construct: the cell lines with high endogenous ALDH1A3 activity: MDA-MB-468 (triple-negative breast cancer), A375 (melanoma), and LN229 (glioblastoma); endogenous in cells; host or cells: A375
- RUN DESCRIPTION: Aldefluor assay in A375 cells
- Format: cell-based
- SETTINGS: Aldefluor in A375 cells; read-out: EC50 cellular, human ALDH1A3
TEST READOUT: EC50 (nM)
Kindly answer with a numeric value in nM, unit omitted.

Challenge: Entry CCc1cnccc1C(=O)Nc1cc2c(cc1F)NC(=O)CC2 needs its EC50 filled in; supply it.
Response given: 5.1

Challenge: Entry CCc1ccccc1C(=O)Nc1cc2c(cc1F)NC(=O)CC2 needs its EC50 filled in; supply it.
Response given: 1.9

====

Here, each record is paired with measured half-life data.
- RUN DESCRIPTION: Microsomal stability (mouse)
- Type: in vitro ADME
- SETTINGS: microsomes, read-out: Microsomal T1/2 (mouse)
Kindly answer with a numeric value in h, unit omitted.

Challenge: Entry CCc1ccccc1C(=O)Nc1cc2c(cc1F)NC(=O)CC2 needs its half-life filled in; supply it.
Response given: 1.87

Now look at this one.
Challenge: Entry CCc1cnccc1C(=O)Nc1cc2c(cc1F)NC(=O)CC2 needs its half-life filled in; supply it.
Response given: 0.727

====

- EXPERIMENTAL TARGET: CYP2D6 (Homo sapiens)
- Sequence (P10635 whole entry): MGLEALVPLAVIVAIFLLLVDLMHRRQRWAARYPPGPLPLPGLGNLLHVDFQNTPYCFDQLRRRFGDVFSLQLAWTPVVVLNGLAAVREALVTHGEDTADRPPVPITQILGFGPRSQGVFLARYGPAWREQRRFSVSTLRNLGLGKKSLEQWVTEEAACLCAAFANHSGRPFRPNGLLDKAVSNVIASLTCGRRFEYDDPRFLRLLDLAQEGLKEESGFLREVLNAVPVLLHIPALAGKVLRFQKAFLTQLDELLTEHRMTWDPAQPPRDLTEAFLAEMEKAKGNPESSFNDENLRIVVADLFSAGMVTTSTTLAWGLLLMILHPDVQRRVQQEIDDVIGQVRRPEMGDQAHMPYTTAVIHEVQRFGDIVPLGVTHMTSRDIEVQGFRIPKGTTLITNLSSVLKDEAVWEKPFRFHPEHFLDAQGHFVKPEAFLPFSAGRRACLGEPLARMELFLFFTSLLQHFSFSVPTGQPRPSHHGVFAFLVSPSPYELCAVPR
- RUN DESCRIPTION: CYP inhibition
- Type: in vitro ADME
TEST READOUT: inhibition at 10 µM (%)
Kindly answer with a numeric value in %, unit omitted.

Challenge: Entry CCc1ccccc1C(=O)Nc1cc2c(cc1F)NC(=O)CC2 [MBE1.5] needs its inhibition at 10 µM filled in; supply it.
Response given: 0

Now look at this one.
Challenge: Entry CCc1cnccc1C(=O)Nc1cc2c(cc1F)NC(=O)CC2 [MBE1] needs its inhibition at 10 µM filled in; supply it.
Response given: 61.3

====

- EXPERIMENTAL TARGET: ALDH1A3 (Homo sapiens, UniProt P47895)
- RUN DESCRIPTION: Recombinant enzyme activity assay
- Type: biochemical
- Parameters: made in house; host or cells: BL21-DE3 E. coli
- SETTINGS: recombinant activity assay (Table 1); read-out: IC50 molecular, human ALDH1A3
TEST READOUT: IC50 (µM)
Kindly answer with a numeric value in µM, unit omitted.

Challenge: Entry CCc1ccccc1C(=O)Nc1cc2c(cc1F)NC(=O)CC2 [MBE1.5] needs its IC50 filled in; supply it.
Response given: 0.083

====

- Tested on: MDR2
- RUN DESCRIPTION: MDCK-MDR2 bidirectional permeability assay
- Format: in vitro ADME
- SETTINGS: dog; efflux ratio; read-out: MDCK-MDR2 (B to A/A to B)
Here, each record is paired with measured efflux ratio data.
// no unit string in output, number only

Challenge: Entry CCc1ccccc1C(=O)Nc1cc2c(cc1F)NC(=O)CC2 needs its efflux ratio filled in; supply it.
Response given: 0.6

Now look at this one.
Challenge: Entry CCc1cnccc1C(=O)Nc1cc2c(cc1F)NC(=O)CC2 needs its efflux ratio filled in; supply it.
Response given: 2.42

====

- EXPERIMENTAL TARGET: human ALDH1A2 (Homo sapiens, UniProt O94788)
- Sequence (O94788 whole entry): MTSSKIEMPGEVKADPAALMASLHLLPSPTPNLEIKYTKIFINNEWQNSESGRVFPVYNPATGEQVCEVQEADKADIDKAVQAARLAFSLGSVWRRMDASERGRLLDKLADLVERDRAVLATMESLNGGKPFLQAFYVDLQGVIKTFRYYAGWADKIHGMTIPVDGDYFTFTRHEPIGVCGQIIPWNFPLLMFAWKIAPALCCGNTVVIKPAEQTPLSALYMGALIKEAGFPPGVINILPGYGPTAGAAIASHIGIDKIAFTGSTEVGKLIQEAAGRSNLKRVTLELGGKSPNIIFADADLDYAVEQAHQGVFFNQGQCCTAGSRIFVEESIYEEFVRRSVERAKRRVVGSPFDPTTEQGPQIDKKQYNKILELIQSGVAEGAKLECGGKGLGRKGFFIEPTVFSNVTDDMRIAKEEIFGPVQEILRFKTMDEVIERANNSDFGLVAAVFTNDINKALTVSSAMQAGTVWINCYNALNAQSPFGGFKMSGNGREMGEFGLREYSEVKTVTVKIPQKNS
- RUN DESCRIPTION: Recombinant enzyme activity assay
- SETTINGS: recombinant activity assay (Table 1); read-out: IC50 molecular, human ALDH1A2
TEST READOUT: IC50 (µM)
Kindly answer with a numeric value in µM, unit omitted.

Challenge: Entry CCc1cnccc1C(=O)Nc1cc2c(cc1F)NC(=O)CC2 [MBE1] needs its IC50 filled in; supply it.
Response given: 3.33

Now look at this one.
Challenge: Entry CCc1ccccc1C(=O)Nc1cc2c(cc1F)NC(=O)CC2 [MBE1.5] needs its IC50 filled in; supply it.
Response given: 5

====

- RUN DESCRIPTION: Serum concentration on MBE1.5-formulated diet
- Assay type: in vivo, mouse
- SETTINGS: C57BL/6, mouse, serum, oral, 25 mg/kg daily, day 5, read-out: nadir serum concentration
TEST READOUT: concentration at 5 day

Challenge: Entry CCc1ccccc1C(=O)Nc1cc2c(cc1F)NC(=O)CC2 [MBE1.5] needs its concentration at 5 day filled in; supply it.
Response given: ~270 nM

====

- EXPERIMENTAL TARGET: hERG (Homo sapiens)
- RUN DESCRIPTION: hERG patch-clamp
- Type: cell-based
TEST READOUT: pIC50
The value called pIC50 is obtained by taking minus log10 of the concentration in mol/L.

Challenge: Entry CCc1cnccc1C(=O)Nc1cc2c(cc1F)NC(=O)CC2 [MBE1] needs its pIC50 filled in; supply it.
Response given: 4.58

====

- EXPERIMENTAL TARGET: hERG (Homo sapiens, UniProt Q12809)
- Sequence (Q12809 whole entry): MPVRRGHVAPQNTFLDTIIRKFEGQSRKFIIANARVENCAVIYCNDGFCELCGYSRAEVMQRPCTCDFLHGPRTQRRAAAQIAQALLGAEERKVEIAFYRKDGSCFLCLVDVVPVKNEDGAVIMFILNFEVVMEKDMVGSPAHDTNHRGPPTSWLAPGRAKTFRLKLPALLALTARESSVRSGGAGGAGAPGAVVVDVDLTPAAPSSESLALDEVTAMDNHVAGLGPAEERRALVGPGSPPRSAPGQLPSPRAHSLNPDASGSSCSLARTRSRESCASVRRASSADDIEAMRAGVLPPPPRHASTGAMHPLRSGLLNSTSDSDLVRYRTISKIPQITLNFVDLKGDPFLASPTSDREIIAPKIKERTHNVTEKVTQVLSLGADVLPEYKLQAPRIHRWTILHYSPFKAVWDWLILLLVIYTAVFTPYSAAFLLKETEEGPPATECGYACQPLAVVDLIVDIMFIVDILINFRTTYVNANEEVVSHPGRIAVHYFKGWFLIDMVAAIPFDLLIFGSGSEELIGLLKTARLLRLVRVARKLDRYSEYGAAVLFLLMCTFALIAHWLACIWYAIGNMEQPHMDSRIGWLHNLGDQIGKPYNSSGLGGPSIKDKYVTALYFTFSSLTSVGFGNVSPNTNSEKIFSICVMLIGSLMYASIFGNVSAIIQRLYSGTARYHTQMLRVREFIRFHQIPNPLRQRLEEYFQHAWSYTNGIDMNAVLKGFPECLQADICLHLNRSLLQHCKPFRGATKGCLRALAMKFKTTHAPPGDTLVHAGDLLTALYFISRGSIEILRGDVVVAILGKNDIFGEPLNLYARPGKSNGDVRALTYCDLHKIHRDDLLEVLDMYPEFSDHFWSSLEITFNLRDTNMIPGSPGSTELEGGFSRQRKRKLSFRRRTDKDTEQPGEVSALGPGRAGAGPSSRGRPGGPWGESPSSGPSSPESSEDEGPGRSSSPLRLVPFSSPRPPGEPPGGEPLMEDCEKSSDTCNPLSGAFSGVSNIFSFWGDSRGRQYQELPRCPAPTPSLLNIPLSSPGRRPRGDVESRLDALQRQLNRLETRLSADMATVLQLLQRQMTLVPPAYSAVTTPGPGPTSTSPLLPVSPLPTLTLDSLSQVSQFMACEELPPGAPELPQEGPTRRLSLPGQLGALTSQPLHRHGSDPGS
- RUN DESCRIPTION: Off-target profiling panel
- Type: binding
- SETTINGS: read-out: Inhibition by MBE1 at 10 μM (%)
TEST READOUT: inhibition at 10 µM (%)
Kindly answer with a numeric value in %, unit omitted.

Challenge: Entry CCc1cnccc1C(=O)Nc1cc2c(cc1F)NC(=O)CC2 needs its inhibition at 10 µM filled in; supply it.
Response given: -28.1

====

- EXPERIMENTAL TARGET: ALDH1A3 (Homo sapiens, UniProt P47895)
- Sequence (P47895 1-512): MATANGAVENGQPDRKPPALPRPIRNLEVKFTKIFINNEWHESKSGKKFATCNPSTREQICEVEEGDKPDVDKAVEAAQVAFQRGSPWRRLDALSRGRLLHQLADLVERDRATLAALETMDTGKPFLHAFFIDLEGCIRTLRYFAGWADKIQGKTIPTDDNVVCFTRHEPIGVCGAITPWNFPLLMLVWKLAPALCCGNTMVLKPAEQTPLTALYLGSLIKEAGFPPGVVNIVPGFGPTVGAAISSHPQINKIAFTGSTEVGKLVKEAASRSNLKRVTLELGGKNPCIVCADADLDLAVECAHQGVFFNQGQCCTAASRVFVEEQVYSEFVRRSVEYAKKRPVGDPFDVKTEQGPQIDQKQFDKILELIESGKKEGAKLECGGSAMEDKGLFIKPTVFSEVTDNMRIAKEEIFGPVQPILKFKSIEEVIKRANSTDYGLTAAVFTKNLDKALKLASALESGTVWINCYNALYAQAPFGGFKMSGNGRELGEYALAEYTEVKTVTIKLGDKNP
- RUN DESCRIPTION: Recombinant enzyme activity assay
- Format: biochemical
- Parameters: made in house; host or cells: BL21-DE3 E. coli
- SETTINGS: dose titration, up to 10 μM
TEST READOUT: inhibitory activity against ALDH1A3 (in words)

Challenge: # lookup: ALDH1A3 (Homo sapiens, UniProt P47895) inhibitory activity against ALDH1A3 (in words), key = C=CCc1cccc(CNc2nc3ccccc3n2CCC)c1O
Response given: no activity up to 10 μM

Challenge: # lookup: ALDH1A3 (Homo sapiens, UniProt P47895) inhibitory activity against ALDH1A3 (in words), key = CCN(CC)C(=S)SSC(=S)N(CC)CC
Response given: weak

Challenge: # lookup: ALDH1A3 (Homo sapiens, UniProt P47895) inhibitory activity against ALDH1A3 (in words), key = CCN(CC)c1ccc(C=O)cc1
Response given: weak

Challenge: # lookup: ALDH1A3 (Homo sapiens, UniProt P47895) inhibitory activity against ALDH1A3 (in words), key = O=C(NCCCCCCCCNC(=O)C(Cl)Cl)C(Cl)Cl
Response given: weak

Continuing:
Challenge: # lookup: ALDH1A3 (Homo sapiens, UniProt P47895) inhibitory activity against ALDH1A3 (in words), key = COC(=O)c1cc(-c2ccc3c(c2)OCO3)nc2cc(-c3ccccc3)nn12
Response given: no activity up to 10 μM

Challenge: # lookup: ALDH1A3 (Homo sapiens, UniProt P47895) inhibitory activity against ALDH1A3 (in words), key = CCOC(=O)CSc1nc2c(sc3ccccc32)c(=O)n1CCCN1CCCC1
Response given: no activity up to 10 μM

Just for reference, paper PMC12595434 is where these values come from.
